# METHOD NOTES: P. berghei load reduction in hepatocytes – cell-based, HepG2, luciferase luminescence, HepG2 viability, primary screen (AID 624349);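 further: 100% = mean of DMSO negative control wells on the same plate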
# TEST CONTEXT: P. berghei liver stage in HepG2, luciferase luminescence, concentration not given here; measured here: HepG2 viability without parasites
Reported values of viability for individual entries
Write down the numeric answer in % and omit the unit.

Example entries and their recorded answers appear below.
In [3]: df
Out[3]:
                                   compound  reading
0  CN(C)S(=O)(=O)c1ccc2c(c1)/C(=C/c1cc3c([nH]1)CCCC3)C(=O)N2      152
1  CC[C@H](CO)Nc1nc(NCc2ccc(-c3ccccn3)cc2)c2ncn(C(C)C)c2n1     85.7
2           N[C@@H](Cn1ccc(=O)c(O)c1)C(=O)O      117
3  N#Cc1c(C2CCNCC2)cc(-c2c(O)cccc2OCC2CC2)nc1N     88.8
4    CCCCCCCCCCCCCCCCn1cc[n+](Cc2ccccc2)c1C      156

viability for O=S(=O)(c1cccc2c(I)cccc12)N1CCCNCC1 ?
77.3

viability for CCCCC[C@H](O)/C=C/[C@@H]1[C@@H](C/C=C\CCCC(=O)O)[C@@H](O)C[C@H]1O ?
102

viability for COc1cc2ncc(-c3ccccc3)nc2cc1OC ?
96.9

viability for O=C1c2ccccc2-[n+]2ccc3c([nH]c4ccccc43)c21 ?
32.8

viability for O=c1cc(N2CCNCC2)oc2c(-c3ccccc3)cccc12 ?
90.4

----------
Reported values of viability for individual entries
# METHOD NOTES: drug combination growth inhibition, ovarian cancer – cell-based, oncology-focused library, rucaparib conditional, profiling panel (AID 1508598)
# TEST CONTEXT: patient-derived ovarian cancer cells, CellTiter-Glo viability, 144 h; at 0.00122 µM; OCI-C5x cells; with rucaparib 10 µM; stronger effect = lower value; 100% = cells with rucaparib alone
Write down the numeric answer in % and omit the unit.

Example entries and their recorded answers appear below.
                                   compound  output_unit  reading
0  COc1ccc(C2=NC(c3ccc(Cl)cc3)C(c3ccc(Cl)cc3)N2C(=O)N2CCNC(=O)C2)c(OC(C)C)c1 (centres undefined)            %      116
1  CCN(CC)CCCCNc1ncc2cc(-c3cc(OC)cc(OC)c3)c(NC(=O)NC(C)(C)C)nc2n1            %      105
2  C[C@H](NC(=O)Cc1cc(F)cc(F)c1)C(=O)N[C@@H]1C(=O)N(C)c2ccccc2-c2ccccc21            %      121

Please find the next compound below.
viability for CC(C)(C)Cn1c(N)nc2ccc(-c3[nH]c(C(C)(C)C)nc3-c3ccc(F)cc3)nc21 ?
112

----------
# METHOD NOTES: viability loss in pontine glioma line – cell-based, SU-DIPG-XXV, MIPE5.0, CellTiter-Glo, qHTS, dose response (AID 1347065);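 further: cells exposed to compound for 48 hours before ATP readout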
# TEST CONTEXT: CellTiter-Glo ATP luminescence
Results filed as inconclusive are left out. The source made the active and inactive calls. No cut-off is given here; in the data, nearly all actives have AC50 up to about 26 µM.
API: response.call in true = active, false = inactive

>>> print(df.to_string())
                                   molecule  group
0                 O=C(O)/C(S)=C/c1ccc(I)cc1  false
1  COCCNCc1ccc(-c2cc3nccc(Oc4ccc(NC(=O)C5(C(=O)Nc6ccc(F)cc6)CC5)cc4F)c3s2)nc1   true
2  C/C(=C\C(=O)Nc1ccccc1C(=O)O)c1ccc2ccccc2c1  false
3  Cc1cnc(Nc2ccc(F)cc2Cl)nc1-c1c[nH]c(C(=O)N[C@H](CO)c2cccc(Cl)c2)c1   true
4  O=C(Nc1ccccc1Br)N[C@@H]1CCN(c2ccc(C(F)(F)F)cn2)C1  false
5  COc1ccc(-c2ccc3c(N4CCOCC4)nc(N4C[C@@H](C)O[C@@H](C)C4)nc3n2)cc1CO   true
6  O=C(Nc1cnn2ccc(N3CCC[C@@H]3c3cc(F)ccc3F)nc12)N1CC[C@H](O)C1  false
7  CCOC(=O)CCNc1cc(N2CCc3ccccc3CC2)nc(-c2ccccn2)n1   true

Would you mind telling me which call this test gave O=C(c1c(F)ccc(NS(=O)(=O)N2CC[C@@H](F)C2)c1F)c1c[nH]c2ncc(-c3cnc(C4CC4)nc3)cc12 ?
true

Would you mind telling me which call this test gave O=C(NC[C@H](O)CO)c1ccncc1Nc1ccc(I)cc1F ?
true

Would you mind telling me which call this test gave CC1=C(c2ccc(O)cc2)[C@H](c2ccc(OCCN3CCCCC3)cc2)Oc2cc(O)ccc21 ?
true

Would you mind telling me which call this test gave COc1ccc(N(C)c2nc(C)nc3ccccc23)cc1 ?
true

Would you mind telling me which call this test gave N#Cc1ccc(-c2c(-c3ncn[nH]3)sc(N3CCOCC3)c2C#N)c(F)c1 ?
true

Would you mind telling me which call this test gave CN(C)C(N)=NC(=N)N ?
false

Would you mind telling me which call this test gave Cc1ccc(NC(=O)c2ccc(CN3CC[C@H](N(C)C)C3)c(C(F)(F)F)c2)cc1Nc1nccc(-c2cncnc2)n1 ?
true

Would you mind telling me which call this test gave O=C(O)c1ccccc1C(=O)Nc1ccc(-c2ccccc2)cc1 ?
false

Would you mind telling me which call this test gave C=CC(=O)Nc1ccc2ncnc(Nc3ccc(OCc4cccc(F)c4)c(Cl)c3)c2c1 ?
true

Would you mind telling me which call this test gave COc1cc(F)ccc1-c1ncnc(Nc2cccc(CS(C)(=N)=O)c2)n1 (stereo not given) ?
true

Would you mind telling me which call this test gave CN[C@@H](C)C(=O)N[C@H](C(=O)N1CCC[C@H]1C(=O)Nc1snnc1-c1ccccc1)C1CCCCC1 ?
false

Would you mind telling me which call this test gave NC1=N[C@H]2[C@H](CS[C@H]2CCCCC(=O)O)N1 ?
false
